Each record here notes measured activity at 0.1 µM.
Tested on: iCell cardiomyocytes (human iPSC-derived cardiomyocytes)
Assay: High-content imaging of cytotoxicity and mitochondrial integrity in iPSC-CMs
Assay type: cell-based
Details: Homo sapiens, Cardiomyocyte, 24 h, 0.10 µM; 0.00 µM = 100.00; read-out: cm.mito.24hrs
Counter-ions that a name gives are not always drawn.
Write the value in % as a bare number.

molecule: COc1ccc(-c2cccc(Cl)c2)cc1Cl
assayed target: iCell cardiomyocytes (human iPSC-derived cardiomyocytes)
activity at 0.1 µM, %: 104
//
molecule: Oc1cccc(-c2ccc(Cl)cc2)c1
assayed target: iCell cardiomyocytes (human iPSC-derived cardiomyocytes)
activity at 0.1 µM, %: 97.5
//
molecule: Oc1ccc(O)c(-c2ccc(Cl)cc2)c1
assayed target: iCell cardiomyocytes (human iPSC-derived cardiomyocytes)
activity at 0.1 µM, %: 101
//
molecule: O=C1C=CC(=O)C(c2ccc(Cl)cc2)=C1
assayed target: iCell cardiomyocytes (human iPSC-derived cardiomyocytes)
activity at 0.1 µM, %: 96.5
//
molecule: Oc1ccccc1-c1ccc(Cl)cc1
assayed target: iCell cardiomyocytes (human iPSC-derived cardiomyocytes)
activity at 0.1 µM, %: 91.2

Continue with the molecule presented below.
Qu. Can you share its activity at 0.1 µM? I mean this molecule: O=S(=O)(O)Oc1cccc(-c2ccc(Cl)cc2)c1 [3'-yl PCB 3 sulfate]
Ans. 105
